TESTED TARGET: T1, recombinant human IL6 (human, UniProt P05231 30-212)
T1 construct: Amine-coupled to a CM5 chip in the Biacore assay; used biotinylated in the Alphascreen assays; also called interleukin-6; biotinylated human IL6
TEST: SPR, Biacore 3000; IL6 amine-coupled on CM5 chip, periplasmic extract injected
Recorded koff for the following binders

BINDER	koff, s⁻¹
PMP20F4 (VHH, Monovalent Nanobody) VHH: QVQLVESGGGLVQAGGSLRLSCAASGRTFSPYTMGWFRQPPGKVREFVGRINWSGIRNYADSVKGRFTISRDNNNNTVYLQMNRLKPEDTAVYYCAAASRSGSGYDSWGQGTQVTVSS	0.000195
PMP23H2 (VHH, Monovalent Nanobody) VHH: AVQLVDSGGGLVQPGGSLRLSCAASGSIFSRLAMDWYRQAPGKQRELVASIAVSGTTMLDDSVKGRFTISRDNAENTVYLQMNSLKPEDTAVYYCMAFDGYTGSDYWGRGTQVTVSS	0.0016
PMP14G11 (VHH, Monovalent Nanobody) VHH: QVQLVESGGGLVQAGGSLRLSCAASGGTFSSFPMGWFRQAPGKGREFVAGISQSGGSTHYSDSVKGRFTISRENAKNTVYLQMNSLKPEDTAVYYCAARGRTLALRNYAYTTEVGYDDWGQGTQVTVSS	0.000229
PMP17D7 (VHH, Monovalent Nanobody) VHH: AVQLVDSGGGLVQAGGSLRLSCAASGGTFSAFPMGWFRQAPGKEREFVAGISQSGGSTHYSDSVKGRFTISKENAKNTVYLQMNSLKPEDTAVYYCAARGRTLALRNYAYTTEVGYDDWGQGTQVTVSS	0.00116
PMP21B4 (VHH, Monovalent Nanobody) VHH: QVQLVESGGGLVQAGDSLRVACAASGRTFSIDAMAWFRQAPGKEREFVSTMNWSTGATYYADSVKGRFTSSRDNAKSTSYLQMNSLKPEDTAVYYCAAARGLLIATDARGYDYWGQGTQVTVSS	0.000658
PMP21E12 (VHH, Monovalent Nanobody) VHH: AVQLVESGGGLVQPGGSLRLSCAASGSITSINPMGWYRQAPGKQRELVARIHGSITNYADSVKGRFTISRDIAKNTVYLQMNSLKPEDTAVYYCNARRWGYDYWGQGAQVTVSS	0.00222
PMP6E10 (VHH, Monovalent Nanobody) VHH: QVKLEESGGGLVQAGGSLRLSCVVSGRTFSPYTIAWFRQAPGKEREFVTTIIGSDRSTDLDGDTYYADSVRGRFTISRNDAKNTVFLQMSSLKPEDTAVYYCALTGKGYVFTPNEYDYWGQGTQVTVSS	0.000545
PMP6B7 (VHH, Monovalent Nanobody) VHH: QVQLVESGGGLVQAGGSLRLSCAASGGTFSAFPMGWFRQAPGKERKFVAGISQSGGSTHYSDSVKGRFTISRENAKNTVYLQMNSLKPEDTAVYYCAARGRTLALRNYAYTTEVGYDDWGQGTQVTVSS	0.000199
